# TARGET: GDP-bound KRAS protein (aa 1-169), containing both G12C and C118A amino acid substitutions (Homo sapiens, UniProt P01116, C118A/G12C)
# Sequence (P01116 1-169 isoform P01116-2 G12C/C118A): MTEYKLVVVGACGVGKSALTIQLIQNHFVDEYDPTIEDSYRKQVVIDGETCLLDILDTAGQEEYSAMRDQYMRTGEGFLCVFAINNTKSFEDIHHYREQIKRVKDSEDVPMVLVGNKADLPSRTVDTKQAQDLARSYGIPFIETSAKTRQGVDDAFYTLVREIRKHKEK
# TEST NAME: Coupled nucleotide exchange assay (SOS-mediated, AlphaScreen)
# Assay type: biochemical
# CONDITIONS: 5 min compound pre-incubation
ENDPOINT LABEL: Coupled exchange IC50 (5 min)

Study these solved cases before continuing.
- COMPOUND: "C=CC(=O)N1CCN(c2nc(=O)n(-c3c(OC)cccc3C(C)C)c3nc(-c4c(O)cccc4F)c(Cl)cc23)[C@@H](C)C1 (single isomer, unassigned) [Example 54-73-2]"
  Coupled exchange IC50 (5 min): "0.368 | nda μM"
- COMPOUND: "C=CC(=O)N1CCN(c2nc(=O)n(-c3c(C)ccnc3CC)c3nc(-c4ccccc4F)c(F)cc23)[C@@H](C)C1 (single isomer, unassigned) [Example 57-16-1]"
  Coupled exchange IC50 (5 min): "1.76 | nda μM"
- COMPOUND: "C=CC(=O)N1C[C@@H](C)N(c2nc(=O)n(-c3c(C)ccnc3C(C)C)c3nc(Cl)c(Cl)cc23)[C@@H](C)C1 (atropisomer, axis not shown; (M))"
  Coupled exchange IC50 (5 min): "0.625 | nda μM"

Assign Coupled exchange IC50 (5 min) to the following record: C=CC(=O)N1CCN(c2nc(=O)n(-c3c(C)ccnc3C(C)C)c3nc(-c4cc(N)ccc4F)c(F)cc23)[C@@H](C)C1 (single isomer, unassigned) [Example 58-6-1]
8.63 | nda μM

Assign Coupled exchange IC50 (5 min) to the following record: `C=CC(=O)N1CCN(c2nc(=O)n(-c3ccccc3Cl)c3nc(-c4ccccc4F)c(Cl)cc23)[C@@H](C)C1`
1.963 | nda μM

---

# TARGET: GDP-bound KRAS protein (aa 1-169), containing both G12C and C118A amino acid substitutions (Homo sapiens, UniProt P01116, C118A/G12C)
# TEST NAME: Coupled nucleotide exchange assay (SOS-mediated, AlphaScreen)
# Type: biochemical
# CONDITIONS: 5 min compound pre-incubation
ENDPOINT LABEL: Coupled exchange IC50 (5 min)

- MOLECULE: "C=CC(=O)N1CCN(c2nc(=O)n(-c3c(F)cccc3C(C)C)c3nc(-c4c(O)cccc4F)c(F)cc23)[C@@H](C)C1 (single isomer, unassigned) [Example 59-2-1]"
  Coupled exchange IC50 (5 min): "0.112 | nda μM"
- MOLECULE: "C=CC(=O)N1CCN(c2nc(=O)n(-c3ccccc3C(C)C)c3nc(C4=CCCOC4)c(Cl)cc23)[C@@H](C)C1"
  Coupled exchange IC50 (5 min): "5.48 | nda μM"
- MOLECULE: "C=CC(=O)N1CCN(c2nc(=O)n(-c3ccccc3C(C)C)c3cc(-c4ccccc4F)c(Cl)nc23)[C@@H](C)C1 (single isomer, unassigned) [Example 110-1]"
  Coupled exchange IC50 (5 min): "3.22 | nda μM"
- MOLECULE: "C=CC(=O)N1CCN(c2nc(=O)n(-c3ccccc3CC#N)c3nc(-c4c(O)cccc4F)c(Cl)cc23)[C@@H](C)C1"
  Coupled exchange IC50 (5 min): "12.2 | nda μM"
- MOLECULE: "C=CC(=O)N1CCN(c2nc(=O)n(-c3c(CC)cccc3CC)c3nc(N4CCC(C)(C)CC4)c(Cl)cc23)[C@@H](C)C1"
  Coupled exchange IC50 (5 min): "25.3 | nda μM"

Turning to the following molecule.
Assign Coupled exchange IC50 (5 min) to the following record: C=CC(=O)N1CCN(c2nc(=O)n(-c3c(F)cccc3C(C)C)c3nc(-c4c(O)cccc4F)c(F)cc23)[C@@H](C)C1 (single isomer, unassigned) [Example 59-2-2]
7.49 | nda μM
